- Test system: guinea pig ileum
- measurement-protocol: Assay of opioid activity by guinea pig ileum assay (electrically evoked contraction of longitudinal muscle strip)
- measurement-parameters: naloxone as μ antagonist, 100 nM
Note to self: Ke (nM) Naloxone (100 nM) under 80 nM means label 1, ties and anything higher get label 0.

INSERT INTO results (compound, class_label) VALUES
  ('CN(C(=O)/C=C/c1ccoc1)[C@@H]1CC[C@@]2(O)[C@H]3Cc4ccc(O)c5c4[C@@]2(CC[N+]3(C)CC2CC2)[C@H]1O5.[I-] (some centres unmarked)', 'label 1'),
  ('CN(C(=O)C#Cc1ccc(C(F)(F)F)cc1)[C@@H]1CC[C@@]2(O)[C@H]3Cc4ccc(O)c5c4[C@@]2(CC[N+]3([O-])CC2CC2)[C@H]1O5 (some centres unmarked)', 'label 1'),
  ('COc1cccc(/C=C/C(=O)N(C)[C@@H]2CC[C@@]3(O)[C@H]4Cc5ccc(O)c6c5[C@@]3(CC[N+]4(C)CC3CC3)[C@H]2O6)c1.[I-] (some centres unmarked)', 'label 0'),
  ('COc1cccc(/C=C/C(=O)N(C)[C@@H]2CC[C@@]3(O)[C@H]4Cc5ccc(O)c6c5[C@@]3(CC[N+]4([O-])CC3CC3)[C@H]2O6)c1 (some centres unmarked)', 'label 1'),
  ('Cc1cccc(C#CC(=O)N(C)[C@@H]2CC[C@@]3(O)[C@H]4Cc5ccc(O)c6c5[C@@]3(CC[N+]4([O-])CC3CC3)[C@H]2O6)c1 (some centres unmarked)', 'label 1');

* * *

- System: guinea pig ileum
- measurement-protocol: Assay of opioid activity by guinea pig ileum assay (electrically evoked contraction of longitudinal muscle strip)
- measurement-parameters: nor-BNI as κ antagonist, 5 nM
Catalogue of molecules with associated Ke (nM) nor-BNI (5 nM)
readout-label: Ke (nM) nor-BNI (5 nM)

INSERT INTO assay_data (molecule, readout_label, obs_value) VALUES
  ('Cc1cccc(C#CC(=O)N(C)[C@@H]2CC[C@@]3(O)[C@H]4Cc5ccc(O)c6c5[C@@]3(CC[N+]4([O-])CC3CC3)[C@H]2O6)c1 (stereo partly drawn) [Compound 6]', 'Ke (nM) nor-BNI (5 nM)', 0.89),
  ('COc1cccc(/C=C/C(=O)N(C)[C@@H]2CC[C@@]3(O)[C@H]4Cc5ccc(O)c6c5[C@@]3(CC[N+]4([O-])CC3CC3)[C@H]2O6)c1 (stereo partly drawn) [Compound 4]', 'Ke (nM) nor-BNI (5 nM)', 0.09),
  ('CN(C(=O)C#Cc1ccc(C(F)(F)F)cc1)[C@@H]1CC[C@@]2(O)[C@H]3Cc4ccc(O)c5c4[C@@]2(CC[N+]3([O-])CC2CC2)[C@H]1O5 (stereo partly drawn) [Compound 5]', 'Ke (nM) nor-BNI (5 nM)', 0.19),
  ('CN(C(=O)/C=C/c1ccoc1)[C@@H]1CC[C@@]2(O)[C@H]3Cc4ccc(O)c5c4[C@@]2(CC[N+]3([O-])CC2CC2)[C@H]1O5 (stereo partly drawn) [Compound 3]', 'Ke (nM) nor-BNI (5 nM)', 0.02),
  ('CN(C(=O)/C=C/c1ccoc1)[C@@H]1CC[C@@]2(O)[C@H]3Cc4ccc(O)c5c4[C@@]2(CC[N+]3(C)CC2CC2)[C@H]1O5.[I-] (stereo partly drawn) [Compound 1]', 'Ke (nM) nor-BNI (5 nM)', 0.03),
  ('COc1cccc(/C=C/C(=O)N(C)[C@@H]2CC[C@@]3(O)[C@H]4Cc5ccc(O)c6c5[C@@]3(CC[N+]4(C)CC3CC3)[C@H]2O6)c1.[I-] (stereo partly drawn) [Compound 2]', 'Ke (nM) nor-BNI (5 nM)', 0.54);
